tested system: recombinant autotaxin (Homo sapiens, UniProt Q13822)
Construct: made in house; host or cells: Hi5 insect cells (baculovirus)
experiment description: Autotaxin test (enzyme test), Amplex Red fluorescence with LPC substrate
Format: biochemical
measurement setup: 10 μM compound; autotaxin inhibition (enzyme test); read-out: % Control at 10 μM
Protocol: Autotaxin Inhibition (Enzyme Test) Autotaxin Test (Enzyme Test) The autotaxin activity is measured indirectly using Amplex Red reagent. Amplex Red is measured here as fluorogenic indicator for the H2O2 formed. […] The fluorescence is measured in a reaction-dependent kinetic mode in order that fluorescent signals from possible other fluorescent substances which are not involved in the reaction can be corrected out. […]
The label is Fulfilled for remaining activity at 10 µM below 50% and Not fulfilled for remaining activity at 10 µM equal to or exceeding 50%.

Answer whether the molecule CC(C)(C)[C@H](NC1CCNCC1)C(=O)N1CCN2C(=O)c3cc(-c4ccc(Cl)cc4F)ccc3NC(=O)[C@H]2C1 [Compound 48] has remaining activity at 10 µM strictly less than 50%
Fulfilled

Determine whether this molecule shows remaining activity at 10 µM lower than 50% (ties excluded): O=C1Nc2ccc(-c3ccc(Cl)cc3)cc2C(=O)N2CCN(C(=O)C3CCNCC3)C[C@H]12 [Compound B5]
Not fulfilled

Find out if reported remaining activity at 10 µM for O=C1Nc2ccc(-c3ccccc3F)cc2C(=O)N2CCN(C(=O)[C@@H](O)c3ccccc3)C[C@H]12 [Compound B3] is less than 50%
Fulfilled

Threshold test, remaining activity at 10 µM < 50%: O=C1Nc2ccc(-c3ccccc3)cc2C(=O)N2CCN(C(=O)c3cccs3)C[C@H]12 [Compound B15]
Not fulfilled

is_below(remaining activity at 10 µM, 50%) for CC(C)(C)[C@H](O)C(=O)N1CCN2Cc3cc(-c4ccc(Cl)cc4)ccc3NC(=O)C2C1 (stereo partly shown) [Compound 57] ?
Fulfilled

Dear reviewer, please state whether CC(C)(C)CC(=O)N1CCN2C(=O)c3cc(-c4cccc(C(F)(F)F)c4)ccc3NC(=O)C2C1 (stereo not shown) [Compound A87] has remaining activity at 10 µM strictly beneath 50%.
Not fulfilled

Does the reported remaining activity at 10 µM of CC(C)(C)CC(=O)N1CCN2C(=O)c3cc(Br)ccc3NC(=O)C2C1 (stereo not shown) [Compound A142] stay below 50%?
Not fulfilled
